# Test system: Human immunodeficiency virus 1
# ASSAY TEXT: Antiviral activity against HIV-1 RES056 infected in human MT4 cells assessed as protection against virus-induced cytotoxicity incubated for 5 days by MTT assay
# Format: functional, organism-based
# REPORTED CONDITIONS: Human immunodeficiency virus 1, RES056, MT4, 120 h
Sorting guide: entries reporting EC50 beneath 1000 nM go in the T pile, the rest go in the F pile.

Known results for molecules:
Cc1cc(C#N)cc(C)c1Oc1nc(Nc2ccc(C#N)cc2)ncc1-c1ccc(Cl)cc1 ... F
Cc1cc(C#N)cc(C)c1Oc1nc(Nc2ccc(C#N)cc2)ncc1-c1ccncc1 ... T
Cc1cc(C#N)cc(C)c1Oc1nc(Nc2ccc(C#N)cc2)ncc1-c1ccoc1 ... T

## Input Identify whether the molecule "Cc1ccnc2c1NC(=O)c1cccnc1N2C1CC1" records EC50 below 1000 nM.
## Output F
